# reported MIC90; entries follow
Test system: E. coli
Test: Minimum inhibitory concentration, broth microdilution (CLSI)
Type: cell-based, Escherichia coli
Conditions: Escherichia coli; broth microdilution in MHB, 18–24 h

Sample answers from the record:
>>> value_measured("NCCCC[C@H](N)C(=O)NCCNC(=O)[C@H](Cc1c[nH]c2ccccc12)NC(=O)c1cc(Br)ccc1NC(=O)c1ccc2ccccc2c1 [Compound 19a]")
"15.6 µM"
>>> value_measured("NCCNC(=O)[C@H](Cc1c[nH]c2ccccc12)NC(=O)c1cc(Br)ccc1NC(=O)c1cc2ccccc2[nH]1 [Compound 12f]")
"> 125 µM"
>>> value_measured("NCCNC(=O)[C@H](Cc1c[nH]c2ccccc12)NC(=O)c1cc(Br)ccc1NC(=O)c1ccsc1 [Compound 12h]")
"> 125 µM"
>>> value_measured("NCCNC(=O)[C@H](Cc1c[nH]c2ccccc12)NC(=O)c1cc(-c2ccc(F)cc2)ccc1N [Compound 16c]")
"> 125 µM"
>>> value_measured("NCCCNC(=O)[C@H](Cc1c[nH]c2ccccc12)NC(=O)c1cc(Br)ccc1NC(=O)c1ccc2ccccc2n1 [Compound 13e]")
"> 125 µM"

## Task Can you share its MIC90? I mean this compound: NCCNC(=O)[C@H](Cc1c[nH]c2ccccc12)NC(=O)c1cc(Br)ccc1NC(=O)c1ccc2ccccc2n1 [Compound 12e]
## Result > 125 µM

Values were extracted from paper PMC10044445.
